Measured values drawn from the supplement of paper PMC11908140 for this set.

B1: library; numbered along this chain (parent)
chain: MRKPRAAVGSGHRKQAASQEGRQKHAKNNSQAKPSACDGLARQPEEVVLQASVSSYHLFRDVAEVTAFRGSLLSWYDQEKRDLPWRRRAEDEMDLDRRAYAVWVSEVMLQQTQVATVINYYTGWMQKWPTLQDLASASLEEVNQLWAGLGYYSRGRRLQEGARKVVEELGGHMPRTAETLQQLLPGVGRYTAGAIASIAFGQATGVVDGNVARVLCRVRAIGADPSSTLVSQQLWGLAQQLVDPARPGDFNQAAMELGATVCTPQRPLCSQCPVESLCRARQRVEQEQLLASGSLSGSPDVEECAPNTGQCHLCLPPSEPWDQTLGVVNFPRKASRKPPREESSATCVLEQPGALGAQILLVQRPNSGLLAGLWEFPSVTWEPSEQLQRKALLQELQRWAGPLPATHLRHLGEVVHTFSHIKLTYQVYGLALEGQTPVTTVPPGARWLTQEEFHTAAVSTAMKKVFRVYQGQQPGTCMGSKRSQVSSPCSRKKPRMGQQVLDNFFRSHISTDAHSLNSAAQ

# Variants of: B1
# measurementDescription: 8OG:A repair function score (normalized; synonymous = 0, nonsense = -1) (normalized log-likelihood score); higher = more repair activity (WT-like);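 note: cells sorted at 72 h after reporter transfection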
# measurementConditions: with 8OG:A DNA repair reporter (GFP) in HEK-293 MUTYH KO cells
endpointLabel: 8OG:A repair function score

INSERT INTO results (mutantlabel, endpointlabel, quantitativereadout) VALUES
  ('E160W', '8OG:A repair function score', 0.0263),
  ('F330S', '8OG:A repair function score', -0.765),
  ('Q239N', '8OG:A repair function score', 0.162),
  ('K127G', '8OG:A repair function score', -0.408),
  ('P488K', '8OG:A repair function score', 0.0286),
  ('G39I', '8OG:A repair function score', -0.0353),
  ('E341W', '8OG:A repair function score', 0.0472),
  ('R389W', '8OG:A repair function score', -0.531);
